Biological target: Fibroblast growth factor 10 (Homo sapiens)
Test: FGF10 binders on small-molecule microarrays, primary screen, biochemical, small-molecule microarray, 635 nm fluorescence (AID 1102)
Conditions: FGF10 binding, fluorescence 635 nm, higher = more signal
Class boundaries, taken from values of composite z-score, are as follows: range 1: < -0.1; range 2: ≥ -0.1 and < 1; range 3: ≥ 1

Example entries begin here.
Qu. Using the reported composite z-score, which band applies to `CCOC(=O)C[C@H]1[C@H](OC(=O)c2cc3ccccc3oc2=O)[C@@H](NC(=O)Cc2ccc(OC)cc2)c2cc(OCCCO)ccc2N1C(=O)Cc1ccc(OC)cc1` ?
Ans. range 2

Qu. Which class holds `C=C(C(=O)CC[C@@H](OC(=O)c1ccccc1-c1ccccc1C(=O)O)c1ccc(OCCO)cc1)C(C)C` ?
Ans. range 3

Qu. Band of `C=C(C(=O)CC[C@@H](OC(=O)c1ccccc1-c1ccccc1C(=O)O)c1ccc(CO)o1)C(C)C` ?
Ans. range 3

---
Qu. Band for the recorded composite z-score of `COC(=O)[C@@]1(Cc2ccc(F)cc2)[C@H]2c3cc(C(=O)N4CCCC4)n(CCc4c[nH]c5cc(F)ccc45)c3C[C@H]2CN1C(=O)c1ccccc1` ?
Ans. range 3

Qu. For `[N-]=[N+]=Nc1ccccc1C[C@]1(C(=O)N2CCCCC2)N=C(c2ccc(OCCCO)cc2)O[C@H]1c1ccccc1` , which composite z-score bin applies?
Ans. range 3

Qu. Category of `COc1cccc(C)c1NC(=O)O[C@H]1[C@H](OC(=O)Nc2ccccc2-c2ccccc2)[C@@H](OC(=O)Nc2ccccc2-c2ccccc2)[C@@H](OC)O[C@@H]1CO` :
Ans. range 3

Qu. Which category does the recorded composite z-score put `O=C(NCCN1CCOCC1)[C@@H]1c2ccccc2C(=O)N(CC23CC4CC(CC(C4)C2)C3)[C@H]1c1ccc(CO)cc1` in?
Ans. range 3

Qu. Sort into band: `[N-]=[N+]=NCc1ccccc1C[C@@]1(C(=O)NCCN2CCOCC2)N=C(c2ccc(OCCCO)cc2)O[C@@H]1c1ccccc1`
Ans. range 2

Qu. Please report the category associated with COC(=O)C1(CC(C)C)C=C2C(=C(C)C(=O)C2C)CN1 (centres undefined) , nothing else.
Ans. range 2

Qu. Note: place this compound into its band. Item: CC1CC/C=C\[C@H]2OC34C=CCN(CCN5CCOCC5)C(=O)[C@H]3N(C(CO)C(C)C)C(=O)[C@@H]4C2C(=O)O1 (some centres undefined)
Ans. range 1
